- Target or system: T1, human recombinant GIP receptor (human, UniProt P48546 22-466)
- T1 construct: whole, on cells; Membranes of CHO-K1 cells expressing the receptor; also called hGIP receptor
- T1 sequence (looked up): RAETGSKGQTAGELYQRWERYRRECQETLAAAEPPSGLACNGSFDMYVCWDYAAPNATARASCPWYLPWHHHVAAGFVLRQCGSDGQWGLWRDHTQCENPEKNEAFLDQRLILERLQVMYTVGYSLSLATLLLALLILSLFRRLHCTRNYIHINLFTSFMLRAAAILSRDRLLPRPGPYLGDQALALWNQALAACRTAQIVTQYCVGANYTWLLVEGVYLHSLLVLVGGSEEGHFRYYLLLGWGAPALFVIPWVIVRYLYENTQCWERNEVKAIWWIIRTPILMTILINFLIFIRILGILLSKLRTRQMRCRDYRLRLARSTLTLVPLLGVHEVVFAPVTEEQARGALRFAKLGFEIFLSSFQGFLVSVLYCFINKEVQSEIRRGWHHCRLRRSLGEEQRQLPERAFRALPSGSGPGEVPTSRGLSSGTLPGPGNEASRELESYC
- Assay procedure: [125I]GIP competition, membranes of CHO-K1 cells expressing human GIP receptor, same conditions as Table 2
Where no end group is shown, it is not given here.
Measurement kind: pKi
Interpret pKi as the negative base-10 log of the concentration measured in mol/L.

Enquiry: Fill in: pKi of YAPGTFISDYSIAMDKIHQQDFVNWLLAQKGKKNDWKHNITQ-OH [[Pro^3]hGIP(1-42)-OH] is ___
Return: 6.77
